Data provenance is patent US9757455B2.

Items are presented alongside their recorded % dissolved in 900 mL 0.0033 N HCl.
# Assay Explanation: Dissolution, USP dissolution apparatus 2, 900 mL 0.0033 N hydrochloric acid, 30 rpm, 37° C.
# Format: physicochemical
# Assay Setup: basic and amphoteric drugs in formulations according to the invention (Table 32); 300 sec; 30 rpm
# Protocol: Testing was conducted in a dissolution medium containing 900 mL 0.0033 N hydrochloric acid (HCl) at 37° C. which discriminates better between fast dissolving formulations than more acidic dissolution media where the effect of high acid concentration tends to mask formulation effects on dissolution. […] Unless otherwise stated, drug concentrations were measured using a Varian Cary 50 UV-Vis Spectrophotometer set at an appropriate wavelength using flow through cells for automatic continuous sampling. […]
Where a name gives a salt, the structure may show the parent alone.
Dear colleague, please return just the value in %, with no unit written.

Some entries whose results are on file:
CN(C)CCc1c[nH]c2ccc(C[C@H]3COC(=O)N3)cc12 | 76
CN1CCC[C@@H]1Cc1c[nH]c2ccc(CCS(=O)(=O)c3ccccc3)cc12 [Eletriptan hydrochloride, Eletriptan hydrobromide] | 96
Cc1nccn1CC1CCc2c(c3ccccc3n2C)C1=O (stereo not shown) [Ondansetron hydrochloride] | 96
COc1cccc(C2(O)CCCCC2CN(C)C)c1 (stereo not shown) [Tramadol hydrochloride] | 100
CCN(CC)CCNC(=O)c1cc(Cl)c(N)cc1OC [Metoclopramide hydrochloride] | 95
Cc1ccc(-c2nc3ccc(C)cn3c2CC(=O)N(C)C)cc1 [Zolpidem tartrate] | 96
O=C1Nc2ccc(Cl)cc2C(c2ccccc2Cl)=NC1O (stereo not shown) | 88
CN(C)CCc1c[nH]c2ccc(Cn3cncn3)cc12 [Rizatriptan benzoate] | 96
Cc1nnc2n1-c1ccc(Cl)cc1C(c1ccccc1)=NC2 | 67

## Task What does the data say about its % dissolved in 900 mL 0.0033 N HCl? Entry: CN(C)C(=O)C(CCN1CCC(O)(c2ccc(Cl)cc2)CC1)(c1ccccc1)c1ccccc1 [Loperamide hydrochloride]
## Result 84
